# System: male ICR mice
# assay procedure: Tolerance: tail flick ED50 after 3-day chronic ICV infusion (osmotic minipump)
# Type: in vivo, mouse
# condition summary: three-day ICV infusion
value type: fold increase in ED50 value after chronic ICV infusion (fold)
Hi! Could you send only the number? It should be in fold, unit omitted.

{"columns": ["molecule", "experimental system", "test value"],
 "data": [
  ["CNC(=O)COCC(=O)NCCCCCNC(=O)COCC(=O)NC1CCC2(O)C3Cc4ccc(O)c5c4C2(CCN3C)C1O5 (stereo not shown) [Compound 12, reference compound]", "male ICR mice", 5.5],
  ["CN1CCC23c4c5ccc(O)c4OC2C(NC(=O)COCC(=O)NCCCNC(=O)COCC(=O)Nc2cccc4c6c([nH]c24)C2Oc4c(O)ccc7c4C24CCN(CC2CC2)C(C7)C4(O)C6)CCC3(O)C1C5 (stereo not shown)", "male ICR mice", 3.6],
  ["CN1CCC23c4c5ccc(O)c4OC2C(NC(=O)COCC(=O)NCCNC(=O)COCC(=O)Nc2cccc4c6c([nH]c24)C2Oc4c(O)ccc7c4C24CCN(CC2CC2)C(C7)C4(O)C6)CCC3(O)C1C5 (stereo not shown)", "male ICR mice", 2.6]
]}

Could you now look at the following molecule, please?
Supply reported fold increase in ED50 value after chronic ICV infusion belonging to this molecule: CN1CCC23c4c5ccc(O)c4OC2C(NC(=O)COCC(=O)NCCCCNC(=O)COCC(=O)Nc2cccc4c6c([nH]c24)C2Oc4c(O)ccc7c4C24CCN(CC2CC2)C(C7)C4(O)C6)CCC3(O)C1C5 (stereo not shown) 3.7
